- target-or-system: T1, recombinant human IL-6 (human, UniProt P05231 30-212)
- T1 construct: Flowed in solution over the captured antibodies
- T1 sequence (P05231 30-212 limits assumed): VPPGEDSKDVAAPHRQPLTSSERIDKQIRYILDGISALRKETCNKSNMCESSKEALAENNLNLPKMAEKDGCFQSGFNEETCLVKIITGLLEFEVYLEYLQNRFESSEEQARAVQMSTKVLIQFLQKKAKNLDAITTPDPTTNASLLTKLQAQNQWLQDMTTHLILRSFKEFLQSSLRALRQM
- assay: SPR (Biacore), supernatant IgG on Protein A, 25 C
For each of the binders below, state its Kd.
Supply the numeric figure in nM, leaving out any unit text.

Need Kd, item anti-IL-6 antibody, heavy chain F32G, light chain WT (antibody, IgG1, V domains shown, Full IgG1 tested; V domains derived as in m2) VH: EVQLVESGGGLVQPGGSLRLSCAASGFTFSPGAMSWVRQAPGKGLEWVAKISPGGSWTYYSDTVTGRFTFSLDTSKSTAYLQMNSLRAEDTAVYYCARQLWGYYALDIWGQGTLVTVSS VL: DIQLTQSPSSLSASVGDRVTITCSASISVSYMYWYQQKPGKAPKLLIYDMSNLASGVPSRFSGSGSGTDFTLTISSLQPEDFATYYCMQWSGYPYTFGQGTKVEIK
0.318

Need Kd, item anti-IL-6 antibody, heavy chain F27P, light chain WT (antibody, IgG1, V domains shown, Full IgG1 tested; V domains derived as in m2) VH: EVQLVESGGGLVQPGGSLRLSCAASGPTFSPFAMSWVRQAPGKGLEWVAKISPGGSWTYYSDTVTGRFTFSLDTSKSTAYLQMNSLRAEDTAVYYCARQLWGYYALDIWGQGTLVTVSS VL: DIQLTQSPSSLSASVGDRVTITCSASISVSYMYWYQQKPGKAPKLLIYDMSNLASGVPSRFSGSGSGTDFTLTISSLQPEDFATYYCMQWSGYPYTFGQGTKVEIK
0.344

Need Kd, item anti-IL-6 antibody, heavy chain WT, light chain S24K (antibody, IgG1, V domains shown, Full IgG1 tested; V domains derived as in m2) VH: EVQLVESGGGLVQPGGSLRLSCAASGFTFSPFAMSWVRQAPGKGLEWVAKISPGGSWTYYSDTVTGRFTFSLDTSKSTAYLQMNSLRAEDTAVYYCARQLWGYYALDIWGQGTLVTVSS VL: DIQLTQSPSSLSASVGDRVTITCKASISVSYMYWYQQKPGKAPKLLIYDMSNLASGVPSRFSGSGSGTDFTLTISSLQPEDFATYYCMQWSGYPYTFGQGTKVEIK
0.424
